Format: in vivo, human healthy volunteers
Reported conditions: human, plasma, oral, 5 mg
Parameter measured: half-life (h)
Give bare numbers, in h.

half-life recorded for this compound, CNC(=O)c1ccccc1Sc1ccc2c(/C=C/c3ccccn3)n[nH]c2c1 [Axitinib] , is 9.44

----------
Test system: axitinib metabolism in human liver microsomes
Assay type: in vitro ADME
Reported conditions: probe axitinib
Parameter measured: IC50 (nM)
One number for each entry, in nM.

Record for CC(=O)N1CCN(c2ccc(OCC3COC(Cn4ccnc4)(c4ccc(Cl)cc4Cl)O3)cc2)CC1 (stereo not shown) under target or system axitinib metabolism in human liver microsomes: IC50 reported as 400
